test.target: Tyrosine-protein kinase Lck (Homo sapiens) (UniProt P06239)
Sequence (P06239 2-509 limits assumed): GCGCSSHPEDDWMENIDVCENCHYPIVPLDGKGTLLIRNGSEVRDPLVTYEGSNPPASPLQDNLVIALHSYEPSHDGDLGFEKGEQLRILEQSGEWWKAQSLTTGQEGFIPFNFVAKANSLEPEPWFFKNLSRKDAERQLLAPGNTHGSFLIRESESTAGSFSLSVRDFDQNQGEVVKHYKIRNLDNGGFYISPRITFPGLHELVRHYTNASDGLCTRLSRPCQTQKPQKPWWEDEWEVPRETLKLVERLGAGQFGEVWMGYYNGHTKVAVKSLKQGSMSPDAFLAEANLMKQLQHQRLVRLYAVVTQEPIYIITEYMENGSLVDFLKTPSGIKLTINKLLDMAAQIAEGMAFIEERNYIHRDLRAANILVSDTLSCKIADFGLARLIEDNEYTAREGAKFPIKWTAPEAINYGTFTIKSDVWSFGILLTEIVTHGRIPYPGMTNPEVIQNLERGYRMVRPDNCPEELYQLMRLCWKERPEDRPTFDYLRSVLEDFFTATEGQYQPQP
test: Compound was tested for its antagonistic activity at 100 uM concentration against SH2 domain of LCK protein.
Assay type: functional
Where a SMILES comes first, the peptide text is derived from it. [ ]: non-standard residue; d: D form. The star is where a group is joined. Gly(N-Bn(4-CH2PO3H2)) = O=C(O)CNCc1ccc(CP(=O)(O)O)cc1; N(3-phenylpropyl)Gly = O=C(O)CNCCCc1ccccc1; Hexanoyl = CCCCCC(=O)*; Nleu = CC(C)CNCC(=O)O; NEtG = CCNCC(=O)O
So I've got a bunch of compounds here, and I need their inhibition values.
Express your answer in %, writing the number without its unit.

Name the recorded inhibition for CCCCCC(=O)N(CC(=O)N(CC(=O)N(CC)CC(=O)N(CC(N)=O)CC(C)C)CC(C)C)Cc1ccc(CP(=O)(O)O)cc1 (Hexanoyl-[Gly(N-Bn(4-CH2PO3H2))][Nleu][NEtG][Nleu]-NH2) . 9

Data request, read-out inhibition, for CCCCCC(=O)N(CC(=O)N(CC)CC(=O)N(CCCc1ccccc1)CC(=O)N(CC(N)=O)CC(C)C)Cc1ccc(CP(=O)(O)O)cc1 (Hexanoyl-[Gly(N-Bn(4-CH2PO3H2))][NEtG][N(3-phenylpropyl)Gly][Nleu]-NH2) 3

Any idea what its inhibition is? The compound is CCCCCC(=O)N(CC(=O)N(CCCc1ccccc1)CC(=O)N(CC)CC(=O)N(CC)CC(N)=O)Cc1ccc(CP(=O)(O)O)cc1 (Hexanoyl-[Gly(N-Bn(4-CH2PO3H2))][N(3-phenylpropyl)Gly][NEtG][NEtG]-NH2) 4

I am curious: what inhibition value has been reported for CCCCCC(=O)N(CC(=O)N(CC(=O)N(CC)CC(=O)N(CCCc1ccccc1)CC(N)=O)CC(C)C)Cc1ccc(CP(=O)(O)O)cc1 (Hexanoyl-[Gly(N-Bn(4-CH2PO3H2))][Nleu][NEtG][N(3-phenylpropyl)Gly]-NH2) ? 10

Given CCCCCC(=O)N(CC(=O)N(CC)CC(=O)N(CCCc1ccccc1)CC(=O)N(CC)CC(N)=O)Cc1ccc(CP(=O)(O)O)cc1 (Hexanoyl-[Gly(N-Bn(4-CH2PO3H2))][NEtG][N(3-phenylpropyl)Gly][NEtG]-NH2) , state its recorded inhibition. 7

I'd like to know its inhibition. The compound in question is CCCCCC(=O)N(CC(=O)N(CCCc1ccccc1)CC(=O)N(CC)CC(=O)N(CC(N)=O)CC(C)C)Cc1ccc(CP(=O)(O)O)cc1 (Hexanoyl-[Gly(N-Bn(4-CH2PO3H2))][N(3-phenylpropyl)Gly][NEtG][Nleu]-NH2) 7

Entry CCCCCC(=O)N(CC(=O)N(CC(=O)N(CCCc1ccccc1)CC(=O)N(CC)CC(N)=O)CC(C)C)Cc1ccc(CP(=O)(O)O)cc1 (Hexanoyl-[Gly(N-Bn(4-CH2PO3H2))][Nleu][N(3-phenylpropyl)Gly][NEtG]-NH2) : reported inhibition = ? 4

Quick one: inhibition of CCCCCC(=O)N(CC(=O)N(CC)CC(=O)N(CC(=O)N(CC(N)=O)CC(C)C)CC(C)C)Cc1ccc(CP(=O)(O)O)cc1 (Hexanoyl-[Gly(N-Bn(4-CH2PO3H2))][NEtG][Nleu][Nleu]-NH2) ? 6

Quick one: inhibition of CCCCCC(=O)N(CC(=O)N(CCCc1ccccc1)CC(=O)N(CCCc1ccccc1)CC(=O)N(CCCc1ccccc1)CC(N)=O)Cc1ccc(CP(=O)(O)O)cc1 (Hexanoyl-[Gly(N-Bn(4-CH2PO3H2))][N(3-phenylpropyl)Gly][N(3-phenylpropyl)Gly][N(3-phenylpropyl)Gly]-NH2) ? 4

Report inhibition for CCCCCC(=O)N(CC(=O)N(CC)CC(=O)N(CC(=O)N(CCCc1ccccc1)CC(N)=O)CC(C)C)Cc1ccc(CP(=O)(O)O)cc1 (Hexanoyl-[Gly(N-Bn(4-CH2PO3H2))][NEtG][Nleu][N(3-phenylpropyl)Gly]-NH2) please. 15

# inhibition lookup, item CCCCCC(=O)N(CC(=O)N(CCCc1ccccc1)CC(=O)N(CC(=O)N(CC)CC(N)=O)CC(C)C)Cc1ccc(CP(=O)(O)O)cc1 (Hexanoyl-[Gly(N-Bn(4-CH2PO3H2))][N(3-phenylpropyl)Gly][Nleu][NEtG]-NH2) 5
